Source: the supplement of paper PMC7840683

System: HepaRG
Test method notes: LDH release cytotoxicity, % of total lysis control; higher = more cytotoxic
Experimental setup: 10 µM; 48 h
Let's look at some molecules and their measured LDH release cytotoxicity.
Please respond with the number in % and leave the unit unwritten.

Look over these answered cases.
CCCCC(CC)CN1C(=O)C2C3C=CC(C3)C2C1=O (stereo not given) [Octylbicycloheptenedicarboximide]	-0.999
N#CN=C1SCCN1Cc1ccc(Cl)nc1	-2.54
CCCCCCCC=O	-1.65
Clc1cccc(Cl)c1Cl	-2.75

stdin: Give a short answer stating reported LDH release cytotoxicity for COCCOCCOCCOC .
stdout: -3.38

stdin: Recall and state the measured LDH release cytotoxicity for CCCCOC(=O)C(C)Oc1ccc(Oc2ccc(C(F)(F)F)cn2)cc1 (stereo not given) .
stdout: 0.207

stdin: Quick one: give measured LDH release cytotoxicity for CCN(Cc1c(F)cccc1Cl)c1c([N+](=O)[O-])cc(C(F)(F)F)cc1[N+](=O)[O-]
stdout: -0.582

stdin: Supply LDH release cytotoxicity value. Item: CCCCc1nc2cccnc2n1Cc1ccc(-c2ccccc2-c2nnn[nH]2)cc1
stdout: -0.404

stdin: Kindly indicate its recorded LDH release cytotoxicity. Item: CCCCSP(=O)(SCCCC)SCCCC
stdout: -0.0795

stdin: Give the measured LDH release cytotoxicity for O=C(CCl)c1ccccc1
stdout: 0.0717

###

Test system: HepaRG
Test method notes: LDH release cytotoxicity, % of total lysis control; higher = more cytotoxic
Experimental setup: 0.5 µM; 48 h
Reported LDH release cytotoxicity by item:
Hi! Could you send only the number? It should be in %, unit omitted.

Worked examples, 3 compounds total:
CCOc1nc(F)cc2nc(S(=O)(=O)Nc3c(Cl)cccc3Cl)nn12	-6.08
CC1=C2CC3C(CC=C4CC(O)CCC43C)C2CCC12OC1CC(C)CNC1C2C (stereo not given)	-4.01
CCCCCCCCCCCO	-4.64

stdin: Return LDH release cytotoxicity for the following compound: O=C1NC(=O)C(c2ccccc2)(c2ccccc2)N1
stdout: -6.19

stdin: Could you please provide reported LDH release cytotoxicity for Oc1ccc2c(c1)OCC(N1CCC(O)(c3ccc(F)cc3)CC1)C2O (stereo not given) ? Thanks!
stdout: 0.111

###

Test system: HepaRG
Test method notes: LDH release cytotoxicity, % of total lysis control; higher = more cytotoxic
Experimental setup: 0.3162278 µM; 48 h
Value kind: LDH release cytotoxicity (%)
// return numeric value only (unit: %, not printed)

Guide cases for LDH release cytotoxicity, answers given:
CC(=O)Oc1ccccc1C(=O)O [Aspirin]	0.562
Nc1nc(N)nc(NC2CC2)n1 [Cyromazine]	-0.958
CC(=O)Nc1ccc(O)cc1 [Acetaminophen]	-2.81
CC12CCC3c4ccc(O)cc4CCC3C1CCC2=O (stereo not given) [Estrone]	-1.15
CCOP(=O)(NC(C)C)Oc1ccc(SC)c(C)c1 (stereo not given) [Fenamiphos]	-1.38
CCc1c(C(=O)NN2CCCCC2)nn(-c2ccc(Cl)cc2Cl)c1-c1ccc(Br)cc1 [Surinabant]	-1.13

stdin: Name the recorded LDH release cytotoxicity of the item NCCO [Ethanolamine] in your answer.
stdout: -1.29

###

Test system: HepaRG
Test method notes: LDH release cytotoxicity, % of total lysis control; higher = more cytotoxic
Experimental setup: 1 µM; 48 h
Value kind: LDH release cytotoxicity (%)
Provide the reading as a plain figure in %.

stdin: State, for HepaRG, measured LDH release cytotoxicity of the compound listed here: O=S(=O)(O)C(F)(F)C(F)(F)C(F)(F)C(F)(F)C(F)(F)C(F)(F)F [Potassium perfluorohexanesulfonate]
stdout: -1.98

stdin: Tell me LDH release cytotoxicity of N#CC(CCc1ccc(Cl)cc1)(Cn1cncn1)c1ccccc1 (centres undefined) [Fenbuconazole] when tested on HepaRG.
stdout: -0.261

stdin: Write down the reported LDH release cytotoxicity (system: HepaRG) of C#CC(C)(C)NC(=O)c1cc(Cl)cc(Cl)c1 [Propyzamide]
stdout: -0.534

stdin: Specify LDH release cytotoxicity for O=[N+]([O-])c1ccc(O)c([N+](=O)[O-])c1 [2,4-Dinitrophenol] , system HepaRG.
stdout: -1

stdin: Return reported LDH release cytotoxicity for target or system HepaRG, item CCOC(N)=O [Urethane] .
stdout: -1.29

stdin: Send back HepaRG LDH release cytotoxicity of C#CC(O)C(CC)CCCC (centres undefined) [4-Ethyloct-1-yn-3-ol] only.
stdout: -1.75

stdin: // fetch LDH release cytotoxicity; item: CCOC(=O)c1ccc(C2CCC(NCC(O)COc3ccc(O)c(NS(C)(=O)=O)c3)CC2)cc1 (centres undefined) ; system: HepaRG
stdout: -2.5

stdin: Given COc1nc(NC(C)C)nc(NC(C)C)n1 [Prometon] , report its LDH release cytotoxicity on HepaRG.
stdout: -1.18

stdin: Given O=C(O)c1cccc(CC2COc3ccc(OCc4nc5cc(F)ccc5s4)cc3C2O)c1 (centres undefined) , report its LDH release cytotoxicity on HepaRG.
stdout: -1.53
